Target System: MLKL (Homo sapiens)
Sequence (Q8NB16 1-471): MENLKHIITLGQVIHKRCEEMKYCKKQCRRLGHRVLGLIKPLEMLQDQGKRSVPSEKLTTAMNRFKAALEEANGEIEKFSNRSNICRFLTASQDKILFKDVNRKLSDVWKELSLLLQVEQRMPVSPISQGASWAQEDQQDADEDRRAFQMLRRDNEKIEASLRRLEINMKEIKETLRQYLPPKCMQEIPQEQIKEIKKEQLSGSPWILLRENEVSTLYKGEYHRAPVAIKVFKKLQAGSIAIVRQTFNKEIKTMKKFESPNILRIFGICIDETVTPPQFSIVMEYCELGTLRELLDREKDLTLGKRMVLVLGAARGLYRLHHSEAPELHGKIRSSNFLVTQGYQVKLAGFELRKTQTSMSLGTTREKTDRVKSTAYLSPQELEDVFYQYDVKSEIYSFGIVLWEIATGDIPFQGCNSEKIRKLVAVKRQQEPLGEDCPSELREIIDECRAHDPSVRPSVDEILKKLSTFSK
Procedure Summary: MLKL degradation assay in HepG2 cell line (western blot)
Type: cell-based
Design: endogenous in cells; host or cells: HepG2 or HaCaT
Cond: compound 10 μM; cell line not given
Experimental: MLKL degradation ability was evaluated in the following method. […] For protein preparation after incubation, cells were washed with 1×TBST, and 60 μL of RIPA lysis buffer containing Halt™ Protease and Phosphatase Inhibitor Cocktail was dispensed into each well. […] For protein quantification, after dispensing sample and BCA (0-4 mg/ml) in a 96 well plate, 100 μL of BCA was dispensed and reacted in a 37° C. incubator for 30 minutes. […]
Assay Metric: Degradation assay (Degradation %) 10 μM

compound="Nc1ncc(-c2cnn(C3CCN(C(=O)C4CCN(C(=O)C5CCN(c6cccc7c6C(=O)N(C6CCC(=O)NC6=O)C7=O)CC5)CC4)CC3)c2)nc1C(=O)OC(C(=O)Nc1ccc(F)cc1)c1ccccc1 (stereo not drawn)" unit_annotation=% reported_measurement=61.88
compound="Nc1ncc(-c2cnn(C3CCN(C(=O)C4CCN(C(=O)C5CCN(c6ccc7nnn(C8CCC(=O)NC8=O)c(=O)c7c6)CC5)CC4)CC3)c2)nc1C(=O)O[C@@H](C(=O)Nc1ccc(F)cc1)c1ccccc1 (stereo partly drawn)" unit_annotation=% reported_measurement=65.91
compound="Nc1ncc(-c2ccc(N3CCN(CCOCCOCCNC(=O)CNc4ccc5c(c4)C(=O)N(C4CCC(=O)NC4=O)C5=O)CC3)nc2)nc1C(=O)OC(C(=O)Nc1ccc(F)cc1)c1ccccc1 (stereo not drawn)" unit_annotation=% reported_measurement=53.35

----------
Target System: MLKL (Homo sapiens)
Procedure Summary: MLKL degradation assay in HepG2 cell line (western blot)
Type: cell-based
Set-up: endogenous in cells; host or cells: HepG2 or HaCaT
Cond: compound 10 μM; cell line not given
Assay Metric: Degradation assay (Degradation %) 10 μM

molecule="Nc1ncc(-c2cnn(C3CCN(CCCN4CCN(C(=O)COc5ccc6c(c5)C(=O)N(C5CCC(=O)NC5=O)C6=O)CC4)CC3)c2)nc1C(=O)OC(C(=O)Nc1ccc(F)cc1)c1ccccc1 (stereo not drawn)" reported_measurement=66.16

a: Nc1ncc(-c2cnn(C3CCN(CCOC4CCN(C(=O)c5ccc(C(=O)NC6CCC(=O)NC6=O)cc5)CC4)CC3)c2)nc1C(=O)O[C@@H](C(=O)Nc1ccc(F)cc1)c1ccccc1 (stereo partly drawn)
b: Nc1ncc(-c2cnn(C3CCN(CCCN4CCN(C(=O)c5ccc6c(N7CCC(=O)NC7=O)coc6c5)CC4)CC3)c2)nc1C(=O)O[C@@H](C(=O)Nc1ccc(F)cc1)c1ccccc1
Would you kindly point out which of a and b has the smaller Degradation assay (Degradation %) 10 μM figure? Answer by quoting the chosen item's label.
a

----------
Entries and their measured Necroptosis inhibition assay (Rescue %) 1 μM follow.
Test system: FADD−/− Jurkat cells
Procedure Summary: Necroptosis inhibition assay, TNF-α-induced necroptosis (CellTiter-Glo 2.0)
Format: cell-based, human
Cond: compound 1 μM; TNF-α 15 ng/mL
Hi! Could you send only the number? It should be in %, unit omitted.

Consider the following illustrative entries.
compound=Cl.Nc1ncc(-c2cnn(C3CCNCC3)c2)nc1C(=O)N[C@@H](C(=O)Nc1ccc(F)cc1)c1ccccc1 reported_measurement=18.18
compound="Nc1ncc(-c2cnn(C3CCN(CCC4CCN(C(=O)CNc5ccc6nnn(C7CCC(=O)NC7=O)c(=O)c6c5)CC4)CC3)c2)nc1C(=O)OC(C(=O)Nc1ccc(F)cc1)c1ccccc1 (stereo not shown)" reported_measurement=78.15
compound="Nc1ncc(-c2ccc(N3CCN(CC4CCN(C(=O)CNc5cccc6c5C(=O)N(C5CCC(=O)NC5=O)C6=O)CC4)CC3)nc2)nc1C(=O)OC(C(=O)Nc1ccc(F)cc1)c1ccccc1 (stereo not shown)" reported_measurement=3.46
compound="Nc1ncc(-c2cnn(C3CCN(CCC4CCN(c5cccc6nnn(C7CCC(=O)NC7=O)c(=O)c56)CC4)CC3)c2)nc1C(=O)OC(C(=O)Nc1ccc(F)cc1)c1ccccc1 (stereo not shown)" reported_measurement=67.12
compound="Nc1ncc(-c2cnn(C3CCN(CCOCCOCCNC(=O)COc4ccc5c(c4)C(=O)N(C4CCC(=O)NC4=O)C5=O)CC3)c2)nc1C(=O)O[C@@H](C(=O)Nc1ccc(F)cc1)c1ccccc1 (stereo partly shown)" reported_measurement=45.5
compound="Nc1ncc(-c2cnn(C3CCN(CC4CN(C(=O)CNc5cccc6c5C(=O)N(C5CCC(=O)NC5=O)C6=O)CCO4)CC3)c2)nc1C(=O)OC(C(=O)Nc1ccc(F)cc1)c1ccccc1 (stereo not shown)" reported_measurement=34.35
compound="Nc1ncc(-c2cnn(C3CCN(CCOC4CCN(C(=O)CNc5ccc6c(c5)C(=O)N(C5CCC(=O)NC5=O)C6=O)CC4)CC3)c2)nc1C(=O)OC(C(=O)Nc1ccc(F)cc1)c1ccccc1 (stereo not shown)" reported_measurement=69.46
compound="Nc1ncc(-c2cnn(C3CCN(C(=O)C4CCN(C(=O)CCc5ccc6c(c5)C(=O)N(C5CCC(=O)NC5=O)C6=O)CC4)CC3)c2)nc1C(=O)O[C@@H](C(=O)Nc1ccc(F)cc1)c1ccccc1 (stereo partly shown)" reported_measurement=32.48

Please give the measured Necroptosis inhibition assay (Rescue %) 1 μM for this compound: Nc1ncc(-c2cnn(C3CCN(CC4CCN(C(=O)COc5ccc6c(c5)C(=O)N(C5CCC(=O)NC5=O)C6=O)CC4)CC3)c2)nc1C(=O)O[C@@H](C(=O)Nc1ccc(F)cc1)c1ccccc1 (stereo partly shown)
93.81

Looking for the measured Necroptosis inhibition assay (Rescue %) 1 μM of Nc1ncc(-c2cnn(C3CN(CC4CCN(C(=O)COc5cccc6c5C(=O)N(C5CCC(=O)NC5=O)C6=O)CC4)C3)c2)nc1C(=O)OC(C(=O)Nc1ccc(F)cc1)c1ccccc1 (stereo not shown) , can you help?
41.64

----------
System: FADD−/− Jurkat cells
Procedure Summary: Necroptosis inhibition assay, TNF-α-induced necroptosis (CellTiter-Glo 2.0)
Assay type: cell-based, human
Cond: compound 1 μM; TNF-α 15 ng/mL
Assay Metric: Necroptosis inhibition assay (Rescue %) 1 μM
Note: unit % is implicit; provide only the numeric part.

Solved cases (3 shown):
molecule="Nc1ncc(-c2cnn(C3CCN(C(=O)c4cn(C5CCN(C(=O)COc6cccc7c6C(=O)N(C6CCC(=O)NC6=O)C7=O)CC5)cn4)CC3)c2)nc1C(=O)O[C@@H](C(=O)Nc1ccc(F)cc1)c1ccccc1 (stereo partly shown)" unit_annotation=% reported_measurement=31.96
molecule="Nc1ncc(-c2cnn(C3CCN(CCCCCCCCCCNC(=O)C4CCN(c5ccc6nnn(C7CCC(=O)NC7=O)c(=O)c6c5)CC4)CC3)c2)nc1C(=O)O[C@@H](C(=O)Nc1ccc(F)cc1)c1ccccc1 (stereo partly shown)" unit_annotation=% reported_measurement=41.3
molecule="Nc1ncc(-c2cnn(C3CCN(C(=O)COC4CCN(C(=O)COc5ccc6c(c5)C(=O)N(C5CCC(=O)NC5=O)C6=O)CC4)CC3)c2)nc1C(=O)O[C@@H](C(=O)Nc1ccc(F)cc1)c1ccccc1 (stereo partly shown)" unit_annotation=% reported_measurement=47.22

Any idea what its Necroptosis inhibition assay (Rescue %) 1 μM is? The molecule is Nc1ncc(-c2cnn(C3CCN(CCOCCOCCNC(=O)C4CCN(c5ccc6c(c5)C(=O)N(C5CCC(=O)NC5=O)C6=O)CC4)CC3)c2)nc1C(=O)N[C@@H](C(=O)Nc1ccc(F)cc1)c1ccccc1 (stereo partly shown)
26.74

# get_value(readout='Necroptosis inhibition assay (Rescue %) 1 μM', item= Nc1ncc(-c2cnn(C3CCN(CC4CCN(C(=O)C5CN(c6ccc7c(c6)C(=O)N(C6CCC(=O)NC6=O)C7=O)C5)CC4)CC3)c2)nc1C(=O)O[C@@H](C(=O)Nc1ccc(F)cc1)c1ccccc1 (stereo partly shown) )
51.47

I am curious: what Necroptosis inhibition assay (Rescue %) 1 μM value has been reported for Nc1ncc(-c2cnn(C3CCN(CCC4CCN(C(=O)CC5CCN(c6cccc7c6C(=O)N(C6CCC(=O)NC6=O)C7=O)CC5)CC4)CC3)c2)nc1C(=O)O[C@@H](C(=O)Nc1ccc(F)cc1)c1ccccc1 (stereo partly shown) ?
45.56

# get_value(readout='Necroptosis inhibition assay (Rescue %) 1 μM', item= Nc1ncc(-c2cnn(C3CCN(C(=O)COC4CCN(C(=O)CNc5ccc6c(c5)C(=O)N(C5CCC(=O)NC5=O)C6=O)CC4)CC3)c2)nc1C(=O)O[C@@H](C(=O)Nc1ccc(F)cc1)c1ccccc1 (stereo partly shown) )
53.20

Entry Nc1ncc(-c2cnn(C3CCN(C(=O)C4CCN(C(=O)CCc5cccc6c5CN(C5CCC(=O)NC5=O)C6=O)CC4)CC3)c2)nc1C(=O)O[C@@H](C(=O)Nc1ccc(F)cc1)c1ccccc1 (stereo partly shown) has what Necroptosis inhibition assay (Rescue %) 1 μM?
22.66

Requested read-out: Necroptosis inhibition assay (Rescue %) 1 μM. Entry: Nc1ncc(-c2cnn([C@@H]3CCN(CCOCCOCCNC(=O)CNc4cccc5c4C(=O)N(C4CCC(=O)NC4=O)C5=O)C3)c2)nc1C(=O)OC(C(=O)Nc1ccc(F)cc1)c1ccccc1 (stereo partly shown)
21.58

Would you mind telling me what Necroptosis inhibition assay (Rescue %) 1 μM value was observed for Nc1ncc(-c2cnn(C3CN(CC4CCN(C(=O)CNc5ccc6c(c5)C(=O)N(C5CCC(=O)NC5=O)C6=O)CC4)C3)c2)nc1C(=O)OC(C(=O)Nc1ccc(F)cc1)c1ccccc1 (stereo not shown) ?
74.28
